- Test system: A549
- assay-info: Cell viability assay (resazurin), A549
- Type: cell-based
- recorded-conditions: Homo sapiens, 72-144 hr
Counter-ions that a name gives are not always drawn.
metric-name: IC50

CC(=O)Nc1cc(Nc2cc(-c3cc(Cl)ccc3F)c(=O)[nH]c2N(C)C)ccn1
28.5 µM

Identify measured IC50 associated with `CC(=O)Nc1cc(Nc2cc(-c3cc(Cl)ccc3F)c(=O)[nH]c2C(C)C)ccn1`
> 30 µM

Identify measured IC50 associated with `CC(C)c1[nH]c(=O)c(-c2cc(Cl)ccc2F)cc1Nc1ccncc1C(N)=O`
> 30 µM

Identify measured IC50 associated with `CC(C)c1[nH]c(=O)c(-c2cc(Cl)ccc2F)cc1Nc1ccnc2[nH]ccc12`
> 30 µM

Identify measured IC50 associated with `CN(C)c1[nH]c(=O)c(-c2cc(Cl)ccc2F)cc1Nc1ccncc1C(N)=O`
> 30 µM

Identify measured IC50 associated with CN(C)c1[nH]c(=O)c(-c2cc(Cl)ccc2F)cc1Nc1ccnc2[nH]ccc12 [Compound 1.12, hydrochloride]
2.77 µM

* * *

- assay-system: ALK 5 (Homo sapiens)
- Sequence (P36897 34-503): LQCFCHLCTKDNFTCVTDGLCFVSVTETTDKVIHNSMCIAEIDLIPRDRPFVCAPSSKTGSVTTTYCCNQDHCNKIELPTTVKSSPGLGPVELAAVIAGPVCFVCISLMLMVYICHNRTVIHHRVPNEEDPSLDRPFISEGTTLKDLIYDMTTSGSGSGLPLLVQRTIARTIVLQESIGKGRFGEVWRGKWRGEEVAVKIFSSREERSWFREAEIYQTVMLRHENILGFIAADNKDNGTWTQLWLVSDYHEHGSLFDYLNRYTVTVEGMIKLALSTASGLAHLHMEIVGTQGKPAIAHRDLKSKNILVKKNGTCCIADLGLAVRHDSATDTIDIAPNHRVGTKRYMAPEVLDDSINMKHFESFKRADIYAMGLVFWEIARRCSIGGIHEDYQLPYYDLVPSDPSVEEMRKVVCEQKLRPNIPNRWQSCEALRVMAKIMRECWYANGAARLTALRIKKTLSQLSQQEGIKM
Readings of IC50 for the listed compounds

Consider the reported IC50 for these compounds:
CN(C)c1[nH]c(=O)c(-c2cc(Cl)ccc2F)cc1Nc1ccncc1C(=O)NC1CC1
2 to 5 µM
CC(O)CNC(=O)c1cnccc1Nc1c[nH]c(=O)c(-c2cc(Cl)ccc2F)c1 (stereo not drawn)
2 to 5 µM
CN1CCn2c1c(Nc1ccnc3[nH]ccc13)cc(-c1cc(Cl)ccc1F)c2=O
≤ 0.5 µM
CC(=O)Nc1cc(Nc2cc(-c3ccc(F)nc3)c(=O)[nH]c2C(C)C)ccn1
> 5 µM
CNC(=O)c1cnccc1Nc1cc(-c2cc(Cl)ccc2F)c(=O)[nH]c1SC
≤ 0.5 µM

Identify measured IC50 associated with `CC(=O)Nc1cc(Nc2cc(-c3cccc(C#N)c3)c(=O)[nH]c2C(C)C)ccn1`
0.5 to 2 µM

Identify measured IC50 associated with `CC(C)c1[nH]c(=O)c(-c2cc(Cl)ccc2F)cc1Nc1ccnc(NC2CC2)c1`
2 to 5 µM

Identify measured IC50 associated with `CC(C)c1[nH]c(=O)c(-c2cc(Cl)ccc2F)cc1Nc1ccnc2[nH]ccc(=O)c12`
> 5 µM

Identify measured IC50 associated with `CN(C)c1[nH]c(=O)c(-c2cc(Cl)ccc2F)cc1Nc1ccncc1C(=O)NC(C)(C)CO`
> 5 µM

Identify measured IC50 associated with `COc1[nH]c(=O)c(-c2cc(Cl)ccc2F)cc1Nc1ccnc(NC(C)=O)c1`
≤ 0.5 µM

Identify measured IC50 associated with `CC(C)c1[nH]c(=O)c(-c2cc(Cl)ccc2F)cc1Nc1ccnc(C(C)(C)C#N)c1`
> 5 µM

Identify measured IC50 associated with `CCc1[nH]c(=O)c(-c2cc(Cl)ccc2F)cc1Nc1ccnc2ccncc12`
≤ 0.5 µM

* * *

- assay-system: ALK 5 (Homo sapiens)
pIC50: −log10 of the molar value.
Readings of pIC50 for the listed molecules

Consider the reported pIC50 for these molecules:
C[C@@H](CO)NC(=O)c1cnccc1Nc1cc(-c2cc(Cl)ccc2F)c(=O)n(C)c1N(C)C
5.30 to 5.70
CC(C)c1[nH]c(=O)c(-c2cc(Cl)ccc2F)cc1Nc1ccncc1C(=O)N[C@@H](C)CO
5.70 to 6.30
CC(=O)Nc1cc(Nc2cc(-c3cc(Cl)ccc3F)c(=O)[nH]c2C2CC2)ccn1
≥ 6.30
C[C@@H](O)CNC(=O)c1cnccc1Nc1cc(-c2cc(Cl)ccc2F)c(=O)n2c1N(C)CCC2
< 5.30
CNC(=O)c1cnccc1Nc1cc(-c2cc(Cl)ccc2F)c(=O)[nH]c1N(C)C
5.70 to 6.30
C[C@@H](CO)NC(=O)c1cnccc1Nc1cc(-c2cc(Cl)ccc2F)c(=O)[nH]c1N(C)C
≥ 6.30
CC(C)c1[nH]c(=O)c(-c2cc(Cl)ccc2F)cc1Nc1ccnc2c1CC(=O)N2
≥ 6.30

Then there is this molecule:
State pIC50 (ALK 5 (Homo sapiens)) of `CC(=O)Nc1cc(Nc2cc(-c3cccc(Cl)c3)c(=O)[nH]c2C(C)C)ccn1` .
≥ 6.30
